// data source = patent US20090291081A1

# targetUnderTest: human IL-1β (human, UniProt P01584 117-269)
# assay: cell-based or functional assay
In this section we review reported MRC5 ND10 values for a set of binders.
Give the number; nM is assumed, so skip it.

Take a look at these entries with their results.
{"binder": "ABT2-13 (other, dAb, VH, to IL-1β; also called dAb ABT2-13) VH: EVQLLESGGGLVQPGGSLRLSCAASGFTFRDYVMYWARQAPGKGLEWVSRIDPMGSSTYYADSVKGRFTISRDNSKNTLYLQMNSLRAEDTAVYYCAKPEGNFDYWGQGTLVTVSS", "measuredEndpoint": "MRC5 ND10", "measuredResult": 100}
{"binder": "ABT2-46 (other, dAb, Vκ, to IL-1β; also called dAb ABT2-46) VL: DIQMTQSPSSLSASVGDRVTITCRASQSIIEWLSWYQQKPGKAPKLLIYRTSVLQSGVPSRFSGSGSGTDFTLTISSLQPEDFATYYCQQNEFWPFTFGQGTKVEIKR", "measuredEndpoint": "MRC5 ND10", "measuredResult": 70}
{"binder": "ABT2-108 (other, dAb, VH, to IL-1β) VH: EVQLLESGGGLVQPGGSLRLSCAASGFTFAEYTMMWVRQAPGKGLEWVSRIGQDGKNTYYADSVKGRFTISRDNSKNTLYLQMNSLRAEDTAVYYCAKYTGRVGVHHLFDYWGQGTLVTSS", "measuredEndpoint": "MRC5 ND10", "measuredResult": 150}
{"binder": "ABT2-76 (other, dAb, Vκ, to IL-1β; also called dAb ABT2-76) VL: DIQMTQSPSSLSASVGDRVTITCRASQSIDRWLAWYQQKPGKAPKLLIYRGSILQSGVPSRFSGSGSGTDFTLTISSLQPEDFATYYCQQVAFWPPTFGQGTKVEIKR", "measuredEndpoint": "MRC5 ND10", "measuredResult": 50}
{"binder": "ABT2-65 (other, dAb, VH, to IL-1β; also called dAb ABT2-65) VH: EVQLLESGGGLVQPGGSLRLSCAASGFTFEDYQMGWVRQAPGKGLEWVSSISAMGNRTYYADSVKGRFTISRDDSKNTLYLQMNSLRAEDTAVYYCAKNLVRTQSKMWMFDYWGQGTLVTVSS", "measuredEndpoint": "MRC5 ND10", "measuredResult": 100}

Param item = ABT2-42 (other, dAb, Vκ, to IL-1β; also called dAb ABT2-42) VL: DIQMTQSPSSLSASVGDRVTITCRASQYIEKWLTWYQQKPGKAPTLLIYRGSLLQSGVPSRFSGSGSGTDFTLTISSLQPEDFATYYCQQTEYWPFTFGQGTKVEIKR ; retrieve measured MRC5 ND10.
100
